biological target: PcrV of P. aeruginosa strain ATCC 700888 (Pseudomonas aeruginosa strain ATCC …); assay: cell-based or functional assay
Listing of entries alongside the reported Rabbit RBC Hemolysis Assay (IC50).
Be sure to follow the number with its unit.

H1H29332P (antibody, V domains shown) VH: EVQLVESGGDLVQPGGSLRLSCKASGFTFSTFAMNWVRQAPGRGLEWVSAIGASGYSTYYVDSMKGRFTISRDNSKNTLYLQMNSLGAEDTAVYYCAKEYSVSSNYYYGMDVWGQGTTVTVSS VL: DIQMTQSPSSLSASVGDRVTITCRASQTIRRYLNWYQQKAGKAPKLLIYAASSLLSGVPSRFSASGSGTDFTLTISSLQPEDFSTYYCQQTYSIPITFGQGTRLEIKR	4.06 nM
H1H29336P (antibody, V domains shown) VH: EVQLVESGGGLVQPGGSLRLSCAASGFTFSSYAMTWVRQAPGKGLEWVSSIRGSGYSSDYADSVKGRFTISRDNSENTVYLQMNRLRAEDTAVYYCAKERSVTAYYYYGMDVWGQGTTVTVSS VL: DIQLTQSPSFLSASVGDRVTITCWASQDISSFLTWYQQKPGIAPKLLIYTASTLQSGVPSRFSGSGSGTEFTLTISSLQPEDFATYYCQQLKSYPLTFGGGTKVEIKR	0.81 nM
H1H29329P (antibody, V domains shown) VH: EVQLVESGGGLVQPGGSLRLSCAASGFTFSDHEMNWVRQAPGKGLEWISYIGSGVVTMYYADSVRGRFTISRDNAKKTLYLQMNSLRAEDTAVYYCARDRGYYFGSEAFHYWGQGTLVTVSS VL: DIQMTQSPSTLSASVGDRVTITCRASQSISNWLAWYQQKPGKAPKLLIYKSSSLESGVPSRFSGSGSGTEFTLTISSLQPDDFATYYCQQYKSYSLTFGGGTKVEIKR	2.39 nM

Next, consider the following binder.
// sample REGN3514 (antibody, V domains shown, also called Control I; Control I-REGN3514) VH: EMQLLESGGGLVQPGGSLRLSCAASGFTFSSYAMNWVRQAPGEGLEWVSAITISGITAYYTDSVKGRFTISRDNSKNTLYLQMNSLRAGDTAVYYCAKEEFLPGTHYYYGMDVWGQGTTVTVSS VL: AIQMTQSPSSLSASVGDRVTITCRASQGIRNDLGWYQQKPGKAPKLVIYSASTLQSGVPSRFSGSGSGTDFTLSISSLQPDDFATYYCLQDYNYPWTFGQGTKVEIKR , its Rabbit RBC Hemolysis Assay (IC50) was 1.01 nM
